Recorded values, source PubChem BioAssay (NCI).

Tested on: DMS 273 small cell lung
Assay: NCI tumour cell line growth inhibition, 48 h
VALUE_KIND: TGI

Input line: // fetch TGI given entry OC1CC1Sc1ccccc1 (configuration not stated)
Output line: > 100 µM

Input line: Look up and state reported TGI for COc1cc([C@@H]2c3cc4c(cc3[C@@H](NC(=O)c3cccc(C#N)c3)C3COC(=O)[C@@H]32)OCO4)cc(OC)c1O (some centres not stated)
Output line: 13.8 µM

Input line: Give me measured TGI, please, for this compound: C/C(=N/NC(=O)c1ccccc1O)c1ccc(/C(C)=N\NC(=O)c2ccccc2O)c2nc3cc(C)c(C)cc3nc12
Output line: > 100 µM

Input line: State, in one line, measured TGI of CCCCCCCCCCCCCCCC(=O)Nc1ccn(C2OC(CO)C(O)C2O)c(=O)n1 (configuration not stated)
Output line: > 100 µM

Input line: Note TGI for the compound shown: C#CCC(O)c1ccccc1C(O)CC#C (configuration not stated)
Output line: > 100 µM

Input line: State, in one line, measured TGI of CN(C)CCN(C)CCC(=O)/C=C/c1ccccc1
Output line: 34 µM

Input line: Entry C/C=C/C1(C)/C(=N\O)C(C)(CCC)C(=O)N1O (configuration not stated) needs its TGI filled in; supply it.
Output line: > 100 µM

###

Test system: UO-31 renal
Assay: NCI tumour cell line growth inhibition, 48 h
VALUE_KIND: TGI (µM)
Use µM as the unit, but write only the number.

Input line: Please list TGI recorded for the molecule Cn1cc(NC(=O)c2cc(NC(=O)CCCCCCCCC(=O)Nc3cc(C(=O)Nc4cc(C(=O)NCCC(N)N)n(C)c4)n(C)c3)cn2C)cc1C(=O)NCCC(=N)N
Output line: 56.9

Input line: Entry COc1ccc2cnc(N)c(C#Cc3cc(C(=O)Nc4ccc(CN5CCN(C)CC5)c(C(F)(F)F)c4)cnc3C)c2c1 needs its TGI filled in; supply it.
Output line: 1.22

Input line: Look up TGI of O=C1Nc2ccccc2/C1=C/C(=N/c1nnc(-c2ccc(Cl)cc2)s1)c1ccccc1 and report it.
Output line: 3.48

Input line: Supply recorded TGI for Cc1ccc(SC2=C(N(C)C)C(=O)c3ccccc3C2=O)cc1 here.
Output line: 21.9

Input line: Report TGI for C=C[C@]1(C)CC(O)C2C(=C)C(=O)OC2[C@H]1C(=C)C=O (stereo not given in full)
Output line: 13.7

Input line: In one line, give reported TGI of the entry Cn1c(CCC2(C)Cc3ccccc3C(=O)O2)cc2ccccc2c1=O (stereo not given) .
Output line: 37.7

Input line: Read off the recorded TGI for N#C/C(=C\c1ccc2c(c1)OCO2)n1nnc2ccccc21
Output line: 12.7

Input line: Return TGI for the following molecule: Cc1cc(Cl)ccc1Nc1nc(C(F)(F)F)ccc1C(=O)N/N=C/c1cccc(O)c1
Output line: 29

Input line: Determine from records and report TGI for N#Cc1cc2c(cc1Cl)SC(=Nc1ccccc1)N(S(=O)(=O)c1ccc(Cl)cc1)S2(=O)=O
Output line: 26.9

Input line: Retrieve TGI measured for O=C(NC(N1CCN(c2cc3c(cc2F)c(=O)c(C(=O)O)cn3C2CC2)CC1)(C(F)(F)F)C(F)(F)F)c1ccccc1 and print it.
Output line: 81.5

###

Can you tell me TGI for the items I'm about to list?
Test system: SNB-19 CNS
Experiment: NCI tumour cell line growth inhibition, 48 h
Respond numerically; units are µM and should not be typed.

Input line: Supply reported TGI belonging to this compound: COCOCCCCCO[Si](C)(C)C(C)(C)C
Output line: 30.6

Input line: Read the entry Oc1ccc(-c2nc3ccc(F)cc3s2)cc1 and write its reported TGI.
Output line: 51.2

Input line: Assign TGI to the following record: COc1cccc(CNCCN2C(=O)c3ccc4c5c(ccc(c35)C2=O)C(=O)N(CCNCc2cccc(OC)c2)C4=O)c1
Output line: 10.4

Input line: Note TGI for the compound shown: Cc1ccc(/C(O)=C/c2nc3ccccc3[nH]c2=O)cc1
Output line: 27.8
